Field: neutralization IC50. Provide a value for each of the binders that follow.
# SYSTEM: HIV-1 Env of pseudovirus SC422661.8 (HIV-1)
# EXPERIMENT: cell-based or functional assay
Quick reminder: number only, in mg/L, skip the unit.

Enquiry: Quick one: neutralization IC50 of MS-70 (antibody, V domains shown) VH: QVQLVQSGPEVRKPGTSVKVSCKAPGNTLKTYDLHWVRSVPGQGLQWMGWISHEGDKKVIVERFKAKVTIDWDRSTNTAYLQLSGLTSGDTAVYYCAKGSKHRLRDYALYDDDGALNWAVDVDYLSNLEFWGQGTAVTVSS VL: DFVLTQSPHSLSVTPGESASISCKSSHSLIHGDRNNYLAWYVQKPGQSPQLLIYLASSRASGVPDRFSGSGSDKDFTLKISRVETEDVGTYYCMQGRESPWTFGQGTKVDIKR ?
Return: 0.391

Enquiry: Quick one: neutralization IC50 of MS-83 (antibody, V domains shown) VH: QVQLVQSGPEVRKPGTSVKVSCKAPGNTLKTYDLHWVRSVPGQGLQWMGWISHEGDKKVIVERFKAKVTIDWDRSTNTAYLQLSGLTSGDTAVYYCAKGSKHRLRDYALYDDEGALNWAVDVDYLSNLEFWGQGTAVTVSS VL: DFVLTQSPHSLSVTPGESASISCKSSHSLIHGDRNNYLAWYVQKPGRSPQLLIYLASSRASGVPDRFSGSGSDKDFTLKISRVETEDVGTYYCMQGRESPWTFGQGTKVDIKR ?
Return: 0.267

Enquiry: Quick one: neutralization IC50 of MS-87 (antibody, V domains shown) VH: QVQLVQSGPEVRKPGTSVKVSCKAPGNTLKTYDLHWVRSVPGQGLQWMGWISHEGDKKVIVERFKAKVTITRDRSTNTAYLQLSGLTSGDTAVYYCAKGSKHRLRDYALYDDDGALNWAVDVDYLSNLEFWGQGTAVTVSS VL: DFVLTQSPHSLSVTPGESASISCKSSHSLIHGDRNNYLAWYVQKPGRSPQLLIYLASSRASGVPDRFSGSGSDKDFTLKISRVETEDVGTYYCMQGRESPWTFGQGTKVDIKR ?
Return: 0.711
